# log10 of AUC(0-t) values compiled below
Assay: Oral pharmacokinetics in rats
Format: in vivo
Settings: male, SD, plasma, rat, intragastric, 3 mg/kg
Metric: log10 of AUC(0-t) (log10 of the value in ng·h/mL)

[
  {
    "Compound": "Fc1ccc2c(c1CNc1ncc(C3=CCCOCC3)c3nncn13)CCO2",
    "log10 of AUC(0-t)": 2.95
  },
  {
    "Compound": "CS(=O)(=O)N1CC=C(c2cnc(NCc3c(F)ccc4c3CCO4)n3cnnc23)CC1",
    "log10 of AUC(0-t)": 2.72
  },
  {
    "Compound": "CS(=O)(=O)c1ccc(-c2cnc(NCc3ccco3)n3cnnc23)cc1 [EED226, reference compound]",
    "log10 of AUC(0-t)": 2.95
  },
  {
    "Compound": "Fc1ccc2c(c1CNc1ncc(C3CCOCC3)c3nncn13)CCO2",
    "log10 of AUC(0-t)": 3.90
  },
  {
    "Compound": "Fc1ccc2c(c1CNc1ncc(C3=CCOCC3)c3nncn13)CCO2",
    "log10 of AUC(0-t)": 3.34
  }
]

* * *

Assay: Liver microsomal stability (mouse)
Type: in vitro ADME
Conditions: mouse, liver microsomes, pH 7.4, mouse liver microsomes; read-out: Half life T-half
Lab note: anything with half-life at or over 0.4 h counts as true; the rest go in false.

[
  {
    "Mol": "CC(=O)N1CCC(c2cnc(NCc3c(F)ccc4c3CCO4)n3cnnc23)CC1",
    "Cat": "true"
  },
  {
    "Mol": "CS(=O)(=O)N1CC=C(c2cnc(NCc3c(F)ccc4c3CCO4)n3cnnc23)CC1",
    "Cat": "true"
  },
  {
    "Mol": "Fc1ccc2c(c1CNc1ncc(C3CCOCC3)c3nncn13)CCO2",
    "Cat": "true"
  },
  {
    "Mol": "CC(=O)N1CC=C(c2cnc(NCc3c(F)ccc4c3CCO4)n3cnnc23)CC1",
    "Cat": "true"
  },
  {
    "Mol": "Fc1ccc2c(c1CNc1ncc(C3=CCOCC3)c3nncn13)CCO2",
    "Cat": "true"
  },
  {
    "Mol": "O=C(CN1CCOCC1)N1CC=C(c2cnc(NCc3c(F)ccc4c3CCO4)n3cnnc23)CC1",
    "Cat": "false"
  },
  {
    "Mol": "O=C(C1CCOCC1)N1CC=C(c2cnc(NCc3c(F)ccc4c3CCO4)n3cnnc23)CC1",
    "Cat": "false"
  }
]

* * *

# AUC(0-inf) values compiled below
Test: Oral pharmacokinetics in rats
Type: in vivo
Conditions: male, SD, plasma, rat, intragastric, 3 mg/kg, extrapolated to infinity, read-out: AUCINF_obs
Method: 1. Healthy male SD rats were used as test animals, EED226, […]-07 (3 mg/kg) were administered intragastrically, and the drug concentrations in rat plasma were determined by LC/MS/MS method at different time points after drug administration. The pharmacokinetic behavior of the compounds of the present invention in rats was studied, and the pharmacokinetic properties were evaluated. 2. […]

[
  {
    "Compound": "Fc1ccc2c(c1CNc1ncc(C3=CCOCC3)c3nncn13)CCO2 [E-Y1]",
    "Unit Symbol": "µg·h/mL",
    "AUC(0-inf)": 2.2
  },
  {
    "Compound": "CS(=O)(=O)N1CC=C(c2cnc(NCc3c(F)ccc4c3CCO4)n3cnnc23)CC1 [E-Y13]",
    "Unit Symbol": "µg·h/mL",
    "AUC(0-inf)": 0.539
  },
  {
    "Compound": "CS(=O)(=O)c1ccc(-c2cnc(NCc3ccco3)n3cnnc23)cc1 [EED226, reference compound]",
    "Unit Symbol": "µg·h/mL",
    "AUC(0-inf)": 0.915
  },
  {
    "Compound": "Fc1ccc2c(c1CNc1ncc(C3CCOCC3)c3nncn13)CCO2 [E-Y47]",
    "Unit Symbol": "µg·h/mL",
    "AUC(0-inf)": 7.91
  },
  {
    "Compound": "Fc1ccc2c(c1CNc1ncc(C3=CCCOCC3)c3nncn13)CCO2 [SL-ZYE-07]",
    "Unit Symbol": "µg·h/mL",
    "AUC(0-inf)": 0.91
  }
]
